Test: inhibition of PAO1 biofilm formation – strain PAO1, LB-PBS medium, absorbance 600 nm, primary screen (AID 1176); also: test concentration not given here
Conditions: P. aeruginosa PAO1 growth/biofilm, A600, 12 h; higher = more signal
Reported z-score values for the following molecules.
Please give the numeric answer without any surrounding text.

Solved cases (8 shown):
1. C=CCOC(=O)[C@H]1[C@@H]2C(=O)O[C@@H](c3ccccc3)[C@@H](c3ccccc3)N2[C@@H](c2ccc(OCCOC(=O)[C@@H]3C[C@@H]4C(=O)N5CCC[C@H]5C(=O)N4[C@@H]3c3cccc(OCCO)c3)cc2)[C@]12C(=O)Nc1ccc(I)cc12
3.85
2. CCOC(=O)C1=CCC(c2ccc(F)cc2)N(S(=O)(=O)c2ccc(C)cc2)C1 (centres undefined)
0.766
3. Cc1c(NC(=O)/C(C#N)=C/c2cccc([N+](=O)[O-])c2)c(=O)n(-c2ccccc2)n1C
0.972
4. C=CCC(OC(C)=O)[C@@H]1[C@@H](N(Cc2cc3ccccc3o2)C(=O)Cc2ccc(OC)cc2)c2cc(OCCCO)ccc2N1C(=O)c1ccc2ccccc2c1 (some centres undefined)
-0.227
5. O=C1O[C@H](c2ccccc2)[C@H](c2ccccc2)N2[C@H]1[C@@H](C(=O)NC[C@H](O)c1ccccc1)[C@]1(C(=O)Nc3ccccc31)[C@H]2c1ccc(O)cc1
0.346
6. C=C(CCCC)/C(=C/C[C@H](OC(C)=O)c1ccccc1OCCO)c1cnc2ccccc2c1
0.26
7. O=C1OCCC=C[C@H]2OC34C=CCN(Cn5nnc6ccccc65)C(=O)[C@H]3N(CCO)C(=O)[C@@H]4C12 (some centres undefined)
0.152
8. O=C(NC1CC1)[C@@H]1c2ccccc2C(=O)N(C2Cc3ccccc3C2)[C@H]1c1ccc(CO)cc1
0.196

Exercise: Provide one value: measured z-score of Cc1ccc(C2C3C(=O)CC4C(=O)N(c5ccccc5)C(=O)C4C3CN2S(=O)(=O)c2ccc(C)cc2)cc1 (centres undefined)
Key: 0.201

Exercise: Tell me measured z-score for C=CC[C@]1(C(N)=O)N=C(c2ccc(OCCCO)cc2)O[C@H]1c1ccccc1 please.
Key: 0.248

Exercise: Note z-score for the molecule shown: O=C1O[C@H](c2ccccc2)[C@H](c2ccccc2)N2[C@H]1[C@@H](C(=O)NC[C@H](O)c1ccccc1)[C@]1(C(=O)Nc3ccc(C#CC4=CCCCC4)cc31)[C@H]2c1ccccc1OCCO
Key: 2.9

Exercise: Identify z-score associated with the molecule CN(C)CCCCNC(=O)[C@@H]1C[C@@H]2C(=O)N[C@@H](CCCCN)C(=O)N2[C@@H]1c1ccc(O)cc1
Key: 0.833

Exercise: Item CC(C)CCC[C@@H](C)[C@H]1CC[C@@]2(C)C3=C(CC[C@]12C)[C@@]1(C)CC[C@H](OC(=O)c2ccc(C(F)(F)F)nc2)C(C)(C)C1CC3 (some centres undefined) : provide z-score
Key: 0.188

Exercise: Please look at this molecule and report its z-score: CC(C)NC(=O)[C@@H]1c2ccccc2C(=O)N(C(C)C)[C@H]1c1ccc(CO)cc1
Key: -0.397

Exercise: Given CC(C)OC(=O)C=C1C[C@@H](c2cccc(Cl)c2)O[C@@H](c2cccc(Cl)c2)O1 , respond with its z-score.
Key: 0.959

Exercise: # return recorded z-score for input COC(=O)[C@H](Cc1ccccc1)N[C@H](/C=C/C1CC1)[C@@H](O)Cc1ccccc1
Key: -0.708

Exercise: Give the measured z-score for CCN(CC)c1ccc(N2CC=CC34O[C@@H]5C=CCOC(=O)[C@@H]5[C@H]3C(=O)N(CCCCCCO)[C@@H]4C2=O)cc1 (some centres undefined)
Key: -0.152

Exercise: Read the entry COCCCNC(=O)[C@@]1(Cc2ccccc2)N=C(c2ccc(OCCCO)cc2)O[C@H]1c1ccccc1CN=[N+]=[N-] and write its reported z-score.
Key: 0.95
